- Tested on: caspase-3
- procedureText: Gel-based competitive ABPP on recombinant caspase-3
- Format: biochemical
- assayConditions: 10 μM compound, irradiated at 365 nm for 30 min at room temperature, PBS with 1 mM DTT, fluorescent ABP read-out on gel
measurementLabel: Inhibition of caspase-3 activity (caspase ABP labeling)

substance	measured
Hexynoyl-Asp-Glu-Val-Aspψ(CH2NH)-Ala-Bpa-NH2 [10a]	complete inhibition
Hexynoyl-Bpa-Asp-Glu-Val-Aspψ(CH2NH)-Ala-NH2 [9a]	complete inhibition

----------
- Test system: caspase-3
- procedureText: Gel-based competitive ABPP on recombinant caspase-3
- Type: biochemical
- assayConditions: 100 μM compound, irradiated at 365 nm for 30 min at room temperature, PBS with 1 mM DTT, fluorescent ABP read-out on gel
measurementLabel: Inhibition of caspase-3 activity (caspase ABP labeling)

substance	measured
Hexynoyl-photoLeu-Asp-Glu-Val-Aspψ(CH2NH)-Ala-NH2 [9b]	complete inhibition
Hexynoyl-Asp-Glu-Val-Aspψ(CH2NH)-Ala-photoLeu-NH2 [10b]	complete inhibition
